All values here come from patent US20260116991A1.

# target-of-assay: monkey GPC3 on HEK293T-monkey GPC3 cells (monkey)
# procedure-details: FACS on HEK293T-monkey GPC3 cells

{"binder": "hAb005LH2L1a (antibody, human IgG1, V domains shown) VH: EVQLVQSGAEVKKPGASVKVSCKASGYTFTDYEMHWVRQAPGQGLEWMGAIDPETGNTAYIQKFKGRVTLTTDKSTSTAYMELRSLRSDDTAVYYCTRFYSYSHWGQGTTVTVSS VL: DIVMTQTPLSLPVTPGEPASISCRSSQSLVHSDGNTYLHWYLQKPGQSPQLLIYKVSNRFSGVPDRFSGSGSGTDFTLKISRVEAEDVGVYYCSQNTHVPPTFGGGTKVEIK", "Max MFI, MFI": 3490}
{"binder": "hAb007LH3L1 (antibody, human IgG1, V domains shown) VH: EVQLVQSGAEVKKPGSSVKVSCKASGYTFTDYEMHWVRQAPGQGLEWMGTIDPETGNTAYNQKFKGRVTLTADKSTSTAYMELSSLRSEDTAVYYCTRPYSLTYWGQGTLVTVSS VL: DIVMTQTPLSLPVTPGEPASISCRSSQSFVHSNGDTYLQWYLQKPGQSPQLLIYKVSNRFSGVPDRFSGSGSGTDFTLKISRVEAEDVGVYYCFQGSHVPYTFGQGTKLEIK", "Max MFI, MFI": 37400}
{"binder": "hAb005LH1L1 (antibody, human IgG1, V domains shown) VH: EVQLVQSGAEVKKPGASVKVSCKASGYTFTDYEMHWVRQAPGQGLEWMGAIDPETGNTAYIQKFKGRVTMTTDKSTSTAYMELRSLRSDDTAVYYCTRFYSYSHWGQGTTVTVSS VL: DIVMTQTPLSLPVTPGEPASISCRSSQSLVHSNGNTYLHWYLQKPGQSPQLLIYKVSNRFSGVPDRFSGSGSGTDFTLKISRVEAEDVGVYYCSQNTHVPPTFGGGTKVEIK", "Max MFI, MFI": 23400}
{"binder": "hAb003LH3L1b (antibody, human IgG1, V domains shown) VH: EVQLVQSGAEVKKPGSSVKVSCKASGYRFTDYEMHWVRQAPGQGLEWMGTIDPETGNTAYTQKFMDRVTLTADKSTSTAYMELSSLRSEDTAVYYCTRGYSFTYWGQGTLVTVSS VL: DIVMTQTPLSLPVTPGEPASISCRSSQNIVHSNRNTYLQWYLQKPGQSPQLLIFKVSNRFSGVPDRFSGSGSGTDFTLKISRVEAEDVGVYYCFQGSHVPFTFGQGTKLEIK", "Max MFI, MFI": 31300}
{"binder": "hAb005LH3L1a (antibody, human IgG1, V domains shown) VH: EVQLVQSGAEVKKPGASVKVSCKASGYTFTDYEMHWVRQAPGQGLEWIGAIDPETGNTAYIQKFKGRATLTTDKSTSTAYMELRSLRSDDTAVYYCTRFYSYSHWGQGTTVTVSS VL: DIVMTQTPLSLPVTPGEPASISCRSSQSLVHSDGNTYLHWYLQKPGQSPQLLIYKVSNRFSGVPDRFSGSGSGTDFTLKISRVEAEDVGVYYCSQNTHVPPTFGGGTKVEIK", "Max MFI, MFI": 2920}
{"binder": "hAb007LH3L1b (antibody, human IgG1, V domains shown) VH: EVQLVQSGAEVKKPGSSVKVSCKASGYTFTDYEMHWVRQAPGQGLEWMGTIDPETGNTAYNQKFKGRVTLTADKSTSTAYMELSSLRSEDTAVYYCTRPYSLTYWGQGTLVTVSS VL: DIVMTQTPLSLPVTPGEPASISCRSSQSFVHSNRDTYLQWYLQKPGQSPQLLIYKVSNRFSGVPDRFSGSGSGTDFTLKISRVEAEDVGVYYCFQGSHVPYTFGQGTKLEIK", "Max MFI, MFI": 35900}
{"binder": "hAb006LH3L1 (antibody, human IgG1, V domains shown) VH: EVQLVQSGAEVKKPGSSVKVSCKASGYTFTDYEIHWVRQAPGQGLEWMGAIDPKTGNTAYNQKFMGRVTLTADKSTSTAYMELSSLRSEDTAVYYCTRYFSFAYWGQGTLVTVSS VL: DIVMTQTPLSLPVTPGEPASISCRSSQTFVHSNGNTYLQWYLQKPGQSPQLLIYKVSNRFSGVPDRFSGSGSGTDFTLKISRVEAEDVGVYYCFQGSHVPYTFGQGTKLEIK", "Max MFI, MFI": 34600}
{"binder": "hAb005LH2L1 (antibody, human IgG1, V domains shown) VH: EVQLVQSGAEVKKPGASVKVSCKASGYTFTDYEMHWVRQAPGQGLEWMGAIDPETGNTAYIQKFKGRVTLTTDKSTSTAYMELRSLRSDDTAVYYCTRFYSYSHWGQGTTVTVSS VL: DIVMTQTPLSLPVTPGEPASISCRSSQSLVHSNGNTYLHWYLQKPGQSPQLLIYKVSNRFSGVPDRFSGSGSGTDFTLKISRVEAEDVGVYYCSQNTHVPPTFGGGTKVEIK", "Max MFI, MFI": 23400}
{"binder": "hAb006LH1L1 (antibody, human IgG1, V domains shown) VH: EVQLVQSGAEVKKPGSSVKVSCKASGYTFSDYEIHWVRQAPGQGLEWMGAIDPKTGNTAYNQKFMGRVTITADKSTSTAYMELSSLRSEDTAVYYCTRYFSFAYWGQGTLVTVSS VL: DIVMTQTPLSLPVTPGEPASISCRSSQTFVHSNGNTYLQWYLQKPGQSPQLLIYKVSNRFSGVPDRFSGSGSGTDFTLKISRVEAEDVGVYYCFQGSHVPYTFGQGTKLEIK", "Max MFI, MFI": 33500}
{"binder": "hAb005LH3L1b (antibody, human IgG1, V domains shown) VH: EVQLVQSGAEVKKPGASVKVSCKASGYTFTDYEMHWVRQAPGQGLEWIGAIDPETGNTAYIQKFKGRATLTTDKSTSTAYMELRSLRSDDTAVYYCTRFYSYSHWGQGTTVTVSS VL: DIVMTQTPLSLPVTPGEPASISCRSSQSLVHSNRNTYLHWYLQKPGQSPQLLIYKVSNRFSGVPDRFSGSGSGTDFTLKISRVEAEDVGVYYCSQNTHVPPTFGGGTKVEIK", "Max MFI, MFI": 22100}
